- PROCEDURE_SUMMARY: Stability of the ginsenosides in rat plasma (QC samples)
- Format: in vitro ADME
- REPORTED_CONDITIONS: extracted low QC (7.2 Rb1, 3.2 Rb2, 2.4 Rd, 5.0 Re ng/mL); autosampler 4°C for 12 h
OUTCOME_MEASURE: Recovery (%) Postpreparation
The reply should contain only the number, in %.

Solved entries:
[[record]]
structure_string = "CC(C)=CCC[C@](C)(O[C@@H]1O[C@H](CO)[C@@H](O)[C@H](O)[C@H]1O)[C@H]1CC[C@]2(C)[C@@H]1[C@H](O)C[C@@H]1[C@@]3(C)CC[C@H](O[C@@H]4O[C@H](CO)[C@@H](O)[C@H](O)[C@H]4O[C@@H]4O[C@H](CO)[C@@H](O)[C@H](O)[C@H]4O)C(C)(C)[C@@H]3CC[C@]12C"
reported_value = 100.10

[[record]]
structure_string = "CC(C)=CCC[C@](C)(O[C@@H]1O[C@H](CO[C@@H]2OC[C@H](O)[C@H](O)[C@H]2O)[C@@H](O)[C@H](O)[C@H]1O)[C@H]1CC[C@]2(C)[C@@H]1[C@H](O)C[C@@H]1[C@@]3(C)CC[C@H](O[C@@H]4O[C@H](CO)[C@@H](O)[C@H](O)[C@H]4O[C@@H]4O[C@H](CO)[C@@H](O)[C@H](O)[C@H]4O)C(C)(C)[C@@H]3CC[C@]12C"
reported_value = 93.37

[[record]]
structure_string = "CC(C)=CCC[C@](C)(O[C@@H]1O[C@H](CO)[C@@H](O)[C@H](O)[C@H]1O)[C@H]1CC[C@]2(C)[C@@H]1[C@H](O)C[C@@H]1[C@@]3(C)CC[C@H](O)C(C)(C)[C@@H]3[C@@H](O[C@@H]3O[C@H](CO)[C@@H](O)[C@H](O)[C@H]3O[C@@H]3O[C@@H](C)[C@H](O)[C@@H](O)[C@H]3O)C[C@]12C"
reported_value = 104.63


Here is the next item to consider.
Task: Entry "CC(C)=CCC[C@](C)(O[C@@H]1O[C@H](CO[C@@H]2O[C@H](CO)[C@@H](O)[C@H](O)[C@H]2O)[C@@H](O)[C@H](O)[C@H]1O)[C@H]1CC[C@]2(C)[C@@H]1[C@H](O)C[C@@H]1[C@@]3(C)CC[C@H](O[C@@H]4O[C@H](CO)[C@@H](O)[C@H](O)[C@H]4O[C@@H]4O[C@H](CO)[C@@H](O)[C@H](O)[C@H]4O)C(C)(C)[C@@H]3CC[C@]12C" has what Recovery (%) Postpreparation?
Result: 101.85
